- Target Under Test: Tumour suppressor p53/oncoprotein Mdm2 (Homo sapiens, UniProt Q00987)
- Sequence (P04637 whole entry): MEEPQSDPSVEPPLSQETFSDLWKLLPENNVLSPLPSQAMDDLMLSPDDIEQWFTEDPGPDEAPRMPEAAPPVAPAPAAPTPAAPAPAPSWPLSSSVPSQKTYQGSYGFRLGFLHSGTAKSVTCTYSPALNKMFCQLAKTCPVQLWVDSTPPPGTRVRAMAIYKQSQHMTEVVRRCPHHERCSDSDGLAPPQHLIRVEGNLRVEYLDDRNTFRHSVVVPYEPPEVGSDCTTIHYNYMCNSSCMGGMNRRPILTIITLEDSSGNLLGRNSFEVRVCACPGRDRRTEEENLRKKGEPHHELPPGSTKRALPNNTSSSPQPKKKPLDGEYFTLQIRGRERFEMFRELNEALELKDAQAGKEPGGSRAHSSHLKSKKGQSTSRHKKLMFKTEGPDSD
- Sequence (Q00987 whole entry): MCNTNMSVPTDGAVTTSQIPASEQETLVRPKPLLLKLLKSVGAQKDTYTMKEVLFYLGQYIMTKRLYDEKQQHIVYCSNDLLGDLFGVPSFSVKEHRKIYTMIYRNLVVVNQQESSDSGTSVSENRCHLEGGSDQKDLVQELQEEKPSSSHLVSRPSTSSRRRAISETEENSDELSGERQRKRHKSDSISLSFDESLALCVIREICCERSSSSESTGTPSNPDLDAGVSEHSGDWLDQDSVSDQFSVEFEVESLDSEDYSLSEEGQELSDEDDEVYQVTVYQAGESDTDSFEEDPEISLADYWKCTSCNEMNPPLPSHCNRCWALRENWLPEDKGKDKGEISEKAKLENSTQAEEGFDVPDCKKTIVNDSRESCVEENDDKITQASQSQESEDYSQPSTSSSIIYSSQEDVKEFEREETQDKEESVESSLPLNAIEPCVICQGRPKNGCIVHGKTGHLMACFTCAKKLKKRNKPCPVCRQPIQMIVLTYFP
- Assay Notes: Inhibition of Mdm2-p53 interaction in human PA-1 cells
Quantity Measured: IC50 (µM)
Number only, in µM; omit the unit.

In plain terms, O=C1C(O)=C(c2ccccc2)C(c2ccc(Cl)cc2)N1Cc1ccc(Cl)cc1 (stereo unspecified) has a documented IC50 of 12.2

* * *

- Target Under Test: Mitogen-activated protein kinase 14 (Homo sapiens)
- Sequence (Q16539 whole entry): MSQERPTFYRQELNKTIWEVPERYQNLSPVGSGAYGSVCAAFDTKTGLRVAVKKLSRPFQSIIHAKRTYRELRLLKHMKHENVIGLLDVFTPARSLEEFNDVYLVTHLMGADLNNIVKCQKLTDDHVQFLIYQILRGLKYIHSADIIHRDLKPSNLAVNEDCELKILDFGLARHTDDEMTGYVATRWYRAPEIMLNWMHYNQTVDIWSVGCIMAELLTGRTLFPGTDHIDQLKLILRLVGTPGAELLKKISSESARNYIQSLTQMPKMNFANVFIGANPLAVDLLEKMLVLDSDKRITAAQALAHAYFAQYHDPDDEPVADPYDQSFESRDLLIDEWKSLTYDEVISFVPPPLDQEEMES
- Assay Notes: Inhibition of p38 alpha MAP kinase (unknown origin)
Exercise: for every item that follows, state its recorded pIC50.
The scale used: pIC50 is minus the common logarithm of the concentration in molar units.

In plain terms, N#Cc1c(-c2ccc(Cl)c(Cl)c2)cc(-c2ccc(Br)cc2)nc1N has a documented pIC50 of 6.92

In plain terms, Cc1ccoc1-c1cc(-c2ccc(Br)cc2)[nH]c(=N)c1C#N has a documented pIC50 of 7.15
